The origin of these recorded values is ChEMBL document CHEMBL1125261.

Give measured IC50 for each item. Keep answers brief.
System name: Adrenergic receptor alpha
Experimental protocol: In vitro binding activity against Alpha receptor in rat brain using [3H]prazosin
Type: tissue-based

Would you kindly share the measured IC50 for Cc1nc(-c2ccc(CCN3CCN(c4cccc5ccccc45)CC3)cc2)cs1 ?
166 nM

Likewise for CCN1C(=O)Cc2cc(CCN3CCN(c4cccc5ccccc45)CC3)ccc21 ?
248 nM

Now try CC1(C)C(=O)Nc2ccc(CCN3CCN(c4cccc5ccccc45)CC3)cc21 .
40 nM

Follow-up entry: Nc1nc(-c2ccc(CCN3CCN(c4cccc5ccccc45)CC3)cc2)cs1
135 nM

Would you kindly repeat that for O=C1Cc2cc(CCN3CCN(c4cccc5ccccc45)CC3)ccc2N1 ?
24 nM

Here is the next molecule: Oc1nc(-c2ccc(CCN3CCN(c4cccc5ccccc45)CC3)cc2)cs1
65 nM

Likewise for Oc1nc2ccc(CCN3CCN(c4cccc5ccccc45)CC3)cc2o1 ?
45 nM

And Cc1sc(N)nc1-c1ccc(CCN2CCN(c3cccc4ccccc34)CC2)cc1 ?
234 nM

And c1ccc2c(N3CCN(CCc4ccc(-c5csnn5)cc4)CC3)cccc2c1 ?
105 nM
